Listed here: compounds with reported IC50 for Nicotinamide N-methyltransferase (Homo sapiens).

For the compound NC(=O)CCCN(Cc1ccc2ccccc2c1)C[C@H]1O[C@@H](n2cnc3c(N)ncnc32)[C@H](O)[C@@H]1O , what IC50 is on record?
111 µM

Input NC(=O)CCCCN(Cc1cccc(C(=O)O)c1)C[C@H]1O[C@@H](n2cnc3c(N)ncnc32)[C@H](O)[C@@H]1O
> 250 µM

Input COC(=O)c1cccc(CN(C[C@H]2O[C@@H](n3cnc4c(N)ncnc43)[C@H](O)[C@@H]2O)C(C)C)c1
> 250 µM

Input COC(=O)c1cccc(CN(CCCC(=O)O)C[C@H]2O[C@@H](n3cnc4c(N)ncnc43)[C@H](O)[C@@H]2O)c1
> 250 µM

Input Nc1ncnc2c1ncn2[C@@H]1O[C@H](CN(CCCC(=O)O)Cc2cccc(C(=O)O)c2)[C@@H](O)[C@H]1O
> 250 µM

Input COC(=O)c1cccc(CN(CCCCC(N)=O)C[C@H]2O[C@@H](n3cnc4c(N)ncnc43)[C@H](O)[C@@H]2O)c1
> 250 µM

Input NC(=O)CCCN(Cc1cccc(C(=O)O)c1)C[C@H]1O[C@@H](n2cnc3c(N)ncnc32)[C@H](O)[C@@H]1O
> 250 µM

Input NC(=O)c1cccc(CCN(CCC[C@H](N)C(=O)O)C[C@H]2O[C@@H](n3cnc4c(N)ncnc43)[C@H](O)[C@@H]2O)c1
4.36 µM
